- Tested on: Botrytis cinerae
- protocol text: Fungicidal activity against Cucumber Gray Mold Rot (CGM) disease
- Type: in vivo
- assay context: Cucumber Gray Mold Rot; concentration 50 ppm
value type: CGM (Fungicidal Activities, C.V.) (%)
Entry rule: numbers only, all in %.

Check out these entries, answers already filled in.
- CNC(=O)C(=NOC)c1ccccc1CON=Cc1cccc(OC(F)=Cc2cccc(Cl)c2)c1 [Compound 38]: 0
- CNC(=O)C(=NOC)c1ccccc1CON=Cc1cccc(OC(F)=Cc2cccc(OC)c2)c1 [Compound 35]: 0
- COC=C(C(=O)OC)c1ccccc1CON=Cc1cccc(OC(F)=Cc2ccc(C)cc2)c1 [Compound 3]: 46
- CNC(=O)C(=NOC)c1ccccc1CON=Cc1cccc(OC(F)=C(c2cccc(C)c2)C(F)(F)F)c1 [Compound 140]: 0

Prompt: Find the measured CGM (Fungicidal Activities, C.V.) of COC=C(C(=O)OC)c1ccccc1CON=C(C)c1cccc(OC(F)=Cc2cc(C)cc(C)c2)c1 [Compound 44] and report it.
Completion: 5

====

- Tested on: Phytophthora infestans
- Assay type: in vivo
- assay context: 50 ppm
// reported Fungicidal Activities TLB (C.V.) per item
Give the value in % but do not write % after it.

Prompt: Please tell me the measured Fungicidal Activities TLB (C.V.) for CNC(=O)C(=NOC)c1ccccc1CON=C(C)c1cccc(OC(F)=C(c2cccc(C(F)(F)F)c2)C(F)(F)F)c1 ; system: Phytophthora infestans.
Completion: 50

Prompt: Enter Fungicidal Activities TLB (C.V.) (test system Phytophthora infestans) for CON=C(C(=O)OC)c1ccccc1CON=C(C)c1cccc(OC(F)=C(c2cccc(OC)c2)C(F)(F)F)c1
Completion: 56

Prompt: With Phytophthora infestans as the test system, provide measured Fungicidal Activities TLB (C.V.) for this compound: CON=C(C(=O)OC)c1ccccc1CON=C(C)c1cccc(OC(F)=C(c2cccc(Cl)c2)C(F)(F)F)c1
Completion: 50

Prompt: Please report the measured Fungicidal Activities TLB (C.V.) for CON=C(C(=O)OC)c1ccccc1CON=C(C)c1cccc(OC(F)=C(c2cccc(F)c2)C(F)(F)F)c1 tested on Phytophthora infestans.
Completion: 40

====

- Test system: Erysiphae graminis
- protocol text: Fungicidal activity against Barley Powdery Mildew (BPM) disease
- Format: in vivo
- assay context: Barley Powdery Mildew; concentration 50 ppm
value type: BPM (Fungicidal Activities, C.V.) (%)
Output spec: scalar in %, unitless text.

* COC=C(C(=O)OC)c1ccccc1CON=C(C)c1cccc(OC(F)=Cc2ccc(OC)cc2)c1 [Compound 48] | 100

Prompt: For the compound CNC(=O)C(=COC)c1ccccc1CON=C(C)c1cccc(OC(F)=Cc2ccc3c(c2)OCO3)c1 [Compound 63] , give its measured BPM (Fungicidal Activities, C.V.) value.
Completion: 97

Prompt: Please supply the value of reported BPM (Fungicidal Activities, C.V.) for the item COC=C(C(=O)OC)c1ccccc1CON=C(c1cccc(OC(F)=Cc2ccc(OC)cc2)c1)C(F)(F)F [Compound 89]
Completion: 100

Prompt: Please report BPM (Fungicidal Activities, C.V.) for the following compound: CNC(=O)C(=NOC)c1ccccc1CON=Cc1cccc(OC(F)=Cc2cccc(OC)c2)c1 [Compound 35]
Completion: 100

Prompt: Let me know recorded BPM (Fungicidal Activities, C.V.) for COC=C(C(=O)OC)c1ccccc1CON=Cc1cccc(OC(F)=C(c2ccc(F)cc2)C(F)(F)F)c1 [Compound 113] , thanks.
Completion: 100

Prompt: Give BPM (Fungicidal Activities, C.V.) for CNC(=O)C(=COC)c1ccccc1CON=C(C)c1cccc(OC(F)=Cc2ccc(Cl)c(C)c2)c1 [Compound 61]
Completion: 86

Prompt: Give BPM (Fungicidal Activities, C.V.) for CCc1ccc(C=C(F)Oc2cccc(C(C)=NOCc3ccccc3C(=NOC)C(=O)OC)c2)cc1 [Compound 69]
Completion: 100

====

Recorded CGM (Fungicidal Activities, C.V.) by entry
- Tested on: Botrytis cinerae
- protocol text: Fungicidal activity against Cucumber Gray Mold Rot (CGM) disease
- Format: in vivo
- assay context: Cucumber Gray Mold Rot; concentration 50 ppm
Write the number in % without appending the unit.

Known CGM (Fungicidal Activities, C.V.) results, listed for orientation:
- CNC(=O)C(=COC)c1ccccc1CON=C(C)c1cccc(OC(F)=Cc2ccc(C)cc2)c1: 8
- COC=C(C(=O)OC)c1ccccc1CON=C(C)c1cccc(OC(F)=Cc2ccc(F)cc2)c1: 52
- CNC(=O)C(=COC)c1ccccc1CON=C(C)c1cccc(OC(F)=Cc2cccc(Cl)c2)c1: 25
- CON=C(C(=O)OC)c1ccccc1CON=C(C)c1cccc(OC(F)=Cc2ccc(C)cc2)c1: 75
- COC=C(C(=O)OC)c1ccccc1CON=C(c1cccc(OC(F)=Cc2ccc(C)cc2)c1)C(F)(F)F: 7

Prompt: Look up CGM (Fungicidal Activities, C.V.) of CCc1ccc(C(=C(F)Oc2cccc(C(C)=NOCc3ccccc3C(=COC)C(=O)OC)c2)C(F)(F)F)cc1 and report it.
Completion: 52

Prompt: Give CGM (Fungicidal Activities, C.V.) for COC=C(C(=O)OC)c1ccccc1CON=Cc1cccc(OC(F)=Cc2ccc(F)cc2)c1
Completion: 52

Prompt: // Input: COC=C(C(=O)OC)c1ccccc1CON=Cc1cccc(OC(F)=C(c2ccc(OC)cc2)C(F)(F)F)c1 . Output its CGM (Fungicidal Activities, C.V.) only.
Completion: 17

====

- Test system: Erysiphae graminis
- protocol text: Fungicidal activity against Barley Powdery Mildew (BPM) disease
- Type: in vivo
- assay context: Barley Powdery Mildew; concentration 50 ppm
The entries below come with measured BPM (Fungicidal Activities, C.V.) values attached.
Report the figure in % without appending any unit label.

Would you please look over these solved cases?
- CON=C(C(=O)OC)c1ccccc1CON=Cc1cccc(OC(F)=Cc2ccc(Cl)cc2)c1 [Compound 28]: 95
- COC=C(C(=O)OC)c1ccccc1CON=Cc1cccc(OC(F)=C(c2ccc(Br)cc2)C(F)(F)F)c1 [Compound 118]: 100
- COC=C(C(=O)OC)c1ccccc1CON=Cc1cccc(OC(F)=Cc2ccc(F)cc2)c1 [Compound 12]: 100

Prompt: Supply recorded BPM (Fungicidal Activities, C.V.) for COC=C(C(=O)OC)c1ccccc1CON=C(C)c1cccc(OC(F)=C(c2cccc(F)c2)C(F)(F)F)c1 [Compound 159] here.
Completion: 100

Prompt: Please give measured BPM (Fungicidal Activities, C.V.) of the following entry: COC=C(C(=O)OC)c1ccccc1CON=C(C)c1cccc(OC(F)=Cc2ccc(Cl)c(C)c2)c1 [Compound 52]
Completion: 100

Prompt: Provide BPM (Fungicidal Activities, C.V.) value for the following molecule: CCCCc1ccc(C=C(F)Oc2cccc(C(C)=NOCc3ccccc3C(=NOC)C(=O)OC)c2)cc1 [Compound 70]
Completion: 100

Prompt: Provide only the value of recorded BPM (Fungicidal Activities, C.V.) for COC=C(C(=O)OC)c1ccccc1CON=Cc1cccc(OC(F)=Cc2cccc(C)c2)c1 [Compound 2]
Completion: 100

Prompt: Answer with reported BPM (Fungicidal Activities, C.V.) of COC=C(C(=O)OC)c1ccccc1CON=C(c1cccc(OC(F)=Cc2ccc(C)cc2)c1)C(F)(F)F [Compound 85]
Completion: 99

Prompt: Report BPM (Fungicidal Activities, C.V.) for CCOc1ccc(C=C(F)Oc2cccc(C(C)=NOCc3ccccc3C(=NOC)C(=O)OC)c2)cc1 [Compound 73]
Completion: 100

Prompt: Output measured BPM (Fungicidal Activities, C.V.) for this item: COC=C(C(=O)OC)c1ccccc1CON=C(C)c1cccc(OC(F)=Cc2ccc3ccccc3c2)c1 [Compound 56]
Completion: 100

Prompt: Consider the molecule CCCCc1ccc(C(=C(F)Oc2cccc(C(C)=NOCc3ccccc3C(=COC)C(=O)OC)c2)C(F)(F)F)cc1 [Compound 156] . State its measured BPM (Fungicidal Activities, C.V.).
Completion: 92

Prompt: Identify BPM (Fungicidal Activities, C.V.) associated with the molecule CNC(=O)C(=COC)c1ccccc1CON=C(C)c1cccc(OC(F)=Cc2ccc(C)cc2)c1 [Compound 57]
Completion: 98

Prompt: Let me know recorded BPM (Fungicidal Activities, C.V.) for CNC(=O)C(=NOC)c1ccccc1CON=Cc1cccc(OC(F)=Cc2ccc(F)cc2)c1 [Compound 37] , thanks.
Completion: 100

Prompt: Find the measured BPM (Fungicidal Activities, C.V.) of CON=C(C(=O)OC)c1ccccc1CON=C(c1cccc(OC(F)=Cc2ccccc2)c1)C(F)(F)F [Compound 102] and report it.
Completion: 100

====

- Test system: Erysiphae graminis
- protocol text: Fungicidal activity against Barley Powdery Mildew (BPM) disease
- Format: in vivo
- assay context: Barley Powdery Mildew; concentration 2 ppm
value type: BPM (Fungicidal Activities, C.V.) (%)
Numeric answer only, unit % assumed.

Study these solved cases before continuing.
- CNC(=O)C(=NOC)c1ccccc1CON=Cc1cccc(OC(F)=C(c2cccc(OC)c2)C(F)(F)F)c1: 0
- COC=C(C(=O)OC)c1ccccc1CON=C(C)c1cccc(OC(F)=Cc2ccc3ccccc3c2)c1: 100
- CNC(=O)C(=NOC)c1ccccc1CON=Cc1cccc(OC(F)=Cc2cccc(OC)c2)c1: 0
- COC=C(C(=O)OC)c1ccccc1CON=Cc1cccc(OC(F)=Cc2cccc(C)c2)c1: 98

Prompt: State, in one line, measured BPM (Fungicidal Activities, C.V.) of COC=C(C(=O)OC)c1ccccc1CON=Cc1cccc(OC(F)=Cc2cccc(Cl)c2)c1
Completion: 99

Prompt: Query BPM (Fungicidal Activities, C.V.) for COC=C(C(=O)OC)c1ccccc1CON=Cc1cccc(OC(F)=C(c2ccc(Br)cc2)C(F)(F)F)c1
Completion: 88

Prompt: Provide measured BPM (Fungicidal Activities, C.V.) value, entry: COC=C(C(=O)OC)c1ccccc1CON=Cc1cccc(OC(F)=Cc2cc(C)cc(C)c2)c1
Completion: 98

Prompt: Identify measured BPM (Fungicidal Activities, C.V.) corresponding to CON=C(C(=O)OC)c1ccccc1CON=C(C)c1cccc(OC(F)=Cc2ccc(F)cc2)c1
Completion: 100
